The origin of these recorded values is the supplement of paper PMC9170038.

Test system: K4 kissing-loop RNA reporter;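 also: bound reporter read as fluorescence of individual clusters on recovered sequencing chips by microscopy, with normalized cluster intensities fitted with a binding model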
METHOD_SUMMARY: apparent KD of K4 kissing-loop reporter; higher = weaker reporter binding
CONDITIONS: Eterna round: R107; input ligand: tryptophan 2.4 mM
Label scheme, based on apparent KD of K4 kissing-loop reporter: low group (below 100 nM), middle group (100 nM to below 200 nM), high group (200 nM or more)

* UUUCUUUUAAUAACACUUUAUACAACUGAAGGAGCGACAAUAAAGUCAGGUAGGUCGCAGAAUUAAUGAGUGAUGUUCAUAUUUA [JR_ExcArginiA_Sub012] | low group
* GCCGUACGCAUGGAUACCAGUCAAGAUCAGUGAUGUUGAUCUUUUAUAGAGCCUACAUUUGACCCUUGGCAGCCAUGCGUACGGC | high group
* UACUUUAAUUUAUAACUAUCUUUAUUUUGUCAGGAUAUCGUAUUGUCGAGAAGGGACUCUCUCAAGUGAUGUUUGAGAAAUCGUU [JR_SSFMNA_Sub024] | low group
* AAAUUCUUUUUUUUAUUUAACUUUUCAGAAGGAGCGUGGUAGUACACAGGUAGGUCGCUGAAUAUAAGACUAGUGAUGUUAGUUA [JR_SSArginiA_Sub009] | middle group
* AACUGUCAAGGACAACAUUACUGAGGUGAUACCAGCAUCGAAAGAUGCCCUUGGCAGCGCCAACUUGCAGUGAUGUUGCAAGUAA [BrourdMod 1 - Jieux - Exclusion - Theophylline A] | middle group
* CCGCCGGUCGGAAGGAGCGCACGCCAGAGUGAUGUUCUGGCGCAGGCAUUUAGUGCCCGCGUGCAGGUAGGUCGCCGAUUCUGGC [Arlaaa] | high group
* GUAUCGCUAGGAGGAUAUUCCAUUUUACAUAGAAAUGGCUAUGCGGAGUGAUGUUCCGAUUUACGGGAAGAAGGCCUAGUGAUAC [FMN B 21] | middle group
* GGUUCUGGUUUGGAGUGAUGUUCUAAGUGGCAGGAUAUGGAGAGAUCCAGAAGGGCCGUUUGUAUCUUUUUUGUGUGGUUUUUUU [Last Minute #2] | middle group
* UGUGUACCGGGAAGGAGCGUGAAUGAGAAUGGAUAUAGUGAUGUUAUAUAUACGAACGAAUCGCAGGUAGGUCGCCCGGAUCCCU [SSArgB.Y] | high group
* GCAGGACGAGGAGGAGGAUGAAUUACUGAAGGAGCGCAUAUUGUUGCAGGUAGGUCGCGGUAAACAAGUAUAGUGAUGUUAUAUC [SSArgA.O] | high group
* UUUGGUAUCUCGGCCGCCACUCGUGGGAAAUGGGCCUCAGGGAUAUAGUGAUGUUAUGUAAAGAAGAGGACCGGGAGAAGGAAGG [ExTryptoB.Dk] | high group
* AGAUGGAAUAGAAGGAGCGGCGCCAGUGAUGUUGGAUGCCGCGGGUGAAUCAGAUCAUAGUGCCAGGUAGGUCGCUAUUUCAGCG [Anedin] | middle group
* GGUAGCAUGGCGGCCGCCACUCUUCAUUAGUGAUGUUAAUGCCGAGUGCGCUAACUCCUACGGGAGAGGACCGGGCCAUGCUACC | low group
* UGGAUAUAGUGAUGUUAUAUAGAGAUGGAUACCAGCUGAGAGAAUAGCCCUUGGCAGCCGAAAGAAGUAUCAUUAGAGAAGAAUG [ExTheophyl.Aj] | middle group
* CACUUACGUAGUGAUGUUACGAUCUCUGAUACCAGACAACUCUAAGUCCCUUGGCAGCAGUCAUUUUGCUUUUAAUUUACUCAAA [JR_ExcTheophyA_Sub014] | high group
* AAUAAAAUCACGGCCGCCACUGAUGCUAAUAUUAGCAGUGAUGUUGCUAUGUAGAUUUUAUUUAACAGGACCGGGUGAAUAUUUA [JR_SSTryptoB_Sub025] | high group
* GCAGUGAUGUUGCGCGAGUACGGUAGAGUACGAGGACCGGUACGGCCGCCACUCGUACGGAACUGGCUAAUUUAUGGAAUGGUGA [III] | middle group
* AAUAAGGUCGCCGAUACCAGCGCAGGCAGAGCAAAGCUCUGCCGGGUAGUGAUGUUACCGCGCCCUUGGCAGCGGUGGCACGACC [Omei KL Theo B SS C v1] | high group
* AUUGCACCUGCGGCCGCCACUCACUCCGGGCUGCUGGCCAGUGAUGUUGGUACGGCUGCCGGUUAGAGGACCGGGCAGGAGCUAA [Esage] | low group
